Tested on: HOP-62 NSCLC
Assay: NCI-60 one-dose screen, 48 h (100 = growth as untreated, 0 = no growth, -100 = all killed)
Details: 10 µM unless noted
This is part of a sample that, as a whole, favours compounds with a hit. Of some 83,000 tested, about 20% had one in any assay.
Decide by growth: equal to or exceeding 60% means satisfied, less means not satisfied.

| MOLECULE | GROUP_LABEL |
| --- | --- |
| Cn1cccc1/C=C1\C(=O)Nc2ccccc21 | satisfied |
| CCOC(=O)CSc1nc2sc3c(c2c(=O)n1-c1ccc([N+](=O)[O-])cc1)CCCCC3 | not satisfied |
| CC(C)(C)c1cc(C=Nc2cccc(C(F)(F)F)c2)c(O)c(C(C)(C)C)c1 | satisfied |
| CC(C)=CC(=O)N[C@@H]1CC2CCC3C(CC[C@@]4(C)C3CC[C@@H]4C(C)N(C)C)[C@@]2(C)C[C@@H]1O (stereo not given in full) | not satisfied |
| O=C(Nc1ncc(Cc2ccccc2Cl)s1)c1cccs1 | satisfied |
| CCCCCSB(SCCCCC)c1ccccc1 | satisfied |
| COc1cc(/C=C/c2cc(/C=C/c3ccc(O)c(OC)c3)n(C(=O)Nc3ccc(F)cc3)n2)ccc1O | not satisfied |
| C=C1C(=O)O[C@H]2[C@H]1CC/C(COC(=O)/C=C\C(=O)NCc1ccc(Cn3c(=O)sn(-c4ccccc4)c3=O)cc1)=C\CC[C@@]1(C)O[C@@H]21 | satisfied |
| CSCCC(NC(=O)c1ccccc1)C(=O)N/N=C1\S/C(=C/c2ccc(Cl)cc2)C(=O)N1C (stereo not given) | not satisfied |
| COc1cc(C(=O)c2c(-c3ccccc3)oc3c(OC)cccc23)cc(OC)c1O | not satisfied |
